target: P2Y purinoceptor 12 (Homo sapiens, UniProt Q9H244); assay: Displacement of [33P]2-MeS-ADP from human recombinant P2Y12 receptor expressed in CHO cell membranes by scintillation counting method
Sequence (Q9H244 whole entry): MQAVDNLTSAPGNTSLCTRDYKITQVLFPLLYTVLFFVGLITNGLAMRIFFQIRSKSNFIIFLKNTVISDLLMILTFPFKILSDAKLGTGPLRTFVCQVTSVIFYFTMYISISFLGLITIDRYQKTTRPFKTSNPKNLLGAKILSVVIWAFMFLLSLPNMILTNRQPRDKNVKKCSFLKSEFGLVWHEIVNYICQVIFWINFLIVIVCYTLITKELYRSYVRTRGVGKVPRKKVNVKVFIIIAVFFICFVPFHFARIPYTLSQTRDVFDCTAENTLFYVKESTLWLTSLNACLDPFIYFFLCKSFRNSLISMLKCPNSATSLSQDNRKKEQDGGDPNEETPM
// values below are reported Ki

- compound: "CCOC(=O)N1CCN(C(=O)[C@H](CCC(=O)O)NC(=O)c2cc(OCC(=O)N(CC)CC)n(-c3ccccc3)n2)CC1"
  relationSymbol: ">"
  Ki, nM: 5000
- compound: "CCOC(=O)N1CCN(C(=O)[C@H](CCC(=O)O)NC(=O)c2cc(OCC(=O)N3CCC[C@H]3C(=O)N3CCCC3)n(-c3ccccc3)n2)CC1"
  relationSymbol: "="
  Ki, nM: 219
- compound: "CCOC(=O)N1CCN(C(=O)[C@H](CCC(=O)O)NC(=O)c2cc(OCC(=O)N3CCC[C@H]3C(=O)NCC3CCC3)n(-c3ccccc3)n2)CC1"
  relationSymbol: "="
  Ki, nM: 19
- compound: "CCOC(=O)N1CCN(C(=O)[C@H](CCC(=O)O)NC(=O)c2cc(OCC(=O)N3CCC(C(=O)NC4CCC4)C3)n(-c3ccccc3)n2)CC1 (some centres undefined)"
  relationSymbol: "="
  Ki, nM: 238
- compound: "CCOC(=O)N1CCN(C(=O)[C@H](CCC(=O)O)NC(=O)c2cc(OCC(=O)N3CC[C@H]3C(=O)NC3CCC3)n(-c3ccccc3)n2)CC1"
  relationSymbol: "="
  Ki, nM: 42
- compound: "CCCCOC(=O)N1CCN(C(=O)[C@H](CCCO)NC(=O)c2cc(OCC(=O)N3CCC[C@H]3C(=O)NC3CCC3)n(-c3ccccc3)n2)CC1"
  relationSymbol: "="
  Ki, nM: 6.5
- compound: "O=C(O)CC[C@H](NC(=O)c1cc(OCC(=O)N2CCC[C@H]2C(=O)NC2CCC2)n(-c2ccccc2)n1)C(=O)N1CCN(C(=O)c2ccccc2)CC1"
  relationSymbol: "="
  Ki, nM: 130
- compound: "CCOC(=O)N1CCN(C(=O)[C@H](CCC(=O)O)NC(=O)c2cc(OCC(=O)N3CCC[C@H]3c3nc(C)c[nH]3)n(-c3ccccc3)n2)CC1"
  relationSymbol: "="
  Ki, nM: 56
- compound: "CCOC(=O)N1CCN(C(=O)[C@H](C)NC(=O)c2cc(OCC(=O)N3CCC[C@H]3C(=O)NC3CCC3)n(-c3ccccc3)n2)CC1"
  relationSymbol: "="
  Ki, nM: 111

All figures here come from ChEMBL document CHEMBL2169809.
